molecular target: FGFR1 (UniProt P11362); assay: phosphorylation enrichment, bacterial display (enrichment ratio); higher = better substrate or ligand; peptides without Tyr show the background;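 further: 11-residue human phosphosite peptides and single-mutation variants displayed on the E. coli surface, counted by deep sequencing, each peptide's frequency after selection divided by its frequency in the unselected input library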;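 further: frequency after pTyr selection over input frequency; kinase dosed for 20-30% of maximal phosphorylation in three min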
Sequence (P11362 whole entry, looked up): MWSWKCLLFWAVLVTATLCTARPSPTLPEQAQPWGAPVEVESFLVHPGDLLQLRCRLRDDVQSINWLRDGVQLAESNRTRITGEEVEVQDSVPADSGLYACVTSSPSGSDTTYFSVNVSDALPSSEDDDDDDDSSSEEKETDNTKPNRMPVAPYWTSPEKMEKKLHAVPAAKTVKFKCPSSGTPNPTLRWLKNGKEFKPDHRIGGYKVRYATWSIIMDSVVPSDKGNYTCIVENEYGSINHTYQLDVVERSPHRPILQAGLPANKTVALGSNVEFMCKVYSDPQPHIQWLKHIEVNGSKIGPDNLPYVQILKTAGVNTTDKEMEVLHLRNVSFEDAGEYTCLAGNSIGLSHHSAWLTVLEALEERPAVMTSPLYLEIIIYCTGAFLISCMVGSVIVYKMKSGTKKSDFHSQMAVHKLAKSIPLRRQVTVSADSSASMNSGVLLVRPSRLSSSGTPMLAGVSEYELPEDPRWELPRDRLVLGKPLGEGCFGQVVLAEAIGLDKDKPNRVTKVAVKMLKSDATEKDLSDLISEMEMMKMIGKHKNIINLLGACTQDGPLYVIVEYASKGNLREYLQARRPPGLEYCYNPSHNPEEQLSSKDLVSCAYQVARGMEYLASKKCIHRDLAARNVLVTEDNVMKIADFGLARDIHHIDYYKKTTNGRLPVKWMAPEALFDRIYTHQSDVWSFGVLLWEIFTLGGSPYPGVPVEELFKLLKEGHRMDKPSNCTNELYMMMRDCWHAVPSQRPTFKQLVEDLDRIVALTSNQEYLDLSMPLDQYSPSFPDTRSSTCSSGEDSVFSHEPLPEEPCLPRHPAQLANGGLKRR
The following sequences are listed with their measured phosphorylation enrichment values.
Please give only the number in your answer, with no unit.

Worked examples follow.
Challenge: Recall the recorded phosphorylation enrichment for YQCKHYACIRQ [TIMP3_Y182_S179C] with FGFR1 (UniProt P11362) and state it.
Response given: 0.336

Challenge: Also LHSDHYSPSGR [TMPRSS12_Y23_Y19H] , if possible.
Response given: 0.485

Challenge: Also check SDFSSYARTSI [TERT_Y949_YF]
Response given: 0.514

Challenge: And the next one, LITTPYIGFLG [KCNQ1_Y267_L266P] ?
Response given: 0.616

Challenge: Then IGNGYYFRVFS [MYBPC3_Y1136] ?
Response given: 0.514

Challenge: Item: FEGHSYSACTT [MMP9_Y241_R239H]
Response given: 0.533

Challenge: Follow-up item: FQKDVYNIPPS [NEDD9_Y177_D178N_YF]
Response given: 0.47

Challenge: And for GHEEFYSTHPH [LRRK2_Y1402_R1398H] ?
Response given: 0.76

Continuing:
Challenge: Under FGFR1 (UniProt P11362): phosphorylation enrichment value of SSDKVYAHQMV [MLH1_Y379] ?
Response given: 0.379

Challenge: What do you get for TMEDSYRKQVV [KRAS_Y40_I36M] ?
Response given: 0.366

Challenge: Queued: FDNSVYQKTTE [LDLR_Y828_P826S]
Response given: 0.51

Challenge: Item: PELINCHQHNS [BTK_Y361_Y361C]
Response given: 0.682

Challenge: // same read-out, input: `ANVKWYRSGRE`
Response given: 0.46

Challenge: Next up: ESMLRYEVFGG [STOX1_Y607_YF]
Response given: 0.415

Provenance of the data: the supplement of paper PMC10065799
